- System: HS 578T breast
- PROCEDURE_DETAILS: NCI tumour cell line growth inhibition, 48 h
REPORTED_METRIC: TGI

Data request: GET /values?readout=TGI&item= Cc1ccccc1N=C(N)Nc1ccccc1C
Data returned: > 100 µM

Data request: GET /values?readout=TGI&item= O=P1(S)OC[C@H]2O[C@@H]3[C@H](F)[C@@H]2OP(O)(=S)OC[C@H]2O[C@H]([C@H](F)[C@@H]2O1)n1cnc2c(ncnc21)NC/C=C/CNc1ncnc2c1ncn23 (stereo partly drawn)
Data returned: > 100 µM

Data request: GET /values?readout=TGI&item= Cc1cc(O)c(C2=NN(c3ccc(S(N)(=O)=O)cc3)C(c3ccc(Cl)cc3)C2)c(C)c1Cl (stereo not drawn)
Data returned: 20 µM

Where do the numbers come from? From PubChem BioAssay (NCI).
